Source listed as paper PMC11494503.

# TESTED ON: PAS-B domain of HIF-1α (Homo sapiens, UniProt Q16665)
# Construct: The HIF-1a PAS-B domain was expressed and purified as previously described; made in house
# Sequence (Q16665 228-298 limits assumed): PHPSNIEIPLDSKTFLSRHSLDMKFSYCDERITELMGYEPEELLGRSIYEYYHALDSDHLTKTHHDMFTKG
# METHOD DESCRIPTION: Microscale thermophoresis (MST) binding to HIF-1α PAS-B domain
# COND: MST, HIF-1α PAS-B, mean (n = 3) ± SEM; read-out: KD
# Procedure: We synthesized the top 20 cyclic peptides from the ranking approach. We also synthesized cyclo-CLLFVY as a control.[14] These compounds were assessed for binding to the PAS-B domain of HIF-1α by microscale thermophoresis (MST). […]
Peptide text beside a SMILES is read from it.
Each entry below lists one item and its recorded Kd value.
Expressed in µM, but write only the number.

Solved cases (2 shown):
| MOLECULE | UNITS | Kd |
| --- | --- | --- |
| CC(C)C[C@@H]1NC(=O)[C@H](CC(N)=O)NC(=O)[C@H](CC(C)C)NC(=O)[C@H](CC(C)C)NC(=O)[C@H](Cc2ccccc2)NC(=O)[C@H](CS)NC1=O [CFLLNL, cyclo-CFLLNL] (cyclo(CFLLNL)) | µM | 103 |
| CC(C)C[C@@H]1NC(=O)[C@H](Cc2c[nH]c3ccccc23)NC(=O)[C@H](C(C)C)NC(=O)[C@H](CO)NC(=O)[C@H](CS)NC(=O)[C@H](Cc2ccc(O)cc2)NC1=O [CSVWLY, cyclo-CSVWLY] (cyclo(CSVWLY)) | µM | 103 |

# molecule CC[C@H](C)[C@@H]1NC(=O)[C@H](Cc2ccc(O)cc2)NC(=O)[C@H](CC(C)C)NC(=O)[C@H](CCCNC(=N)N)NC(=O)[C@H](CS)NC(=O)[C@H](C(C)C)NC1=O [CRLYIV, cyclo-CRLYIV] (cyclo(CRLYIV)) ; its Kd = 122
